Test system: rodent lifetime carcinogenesis bioassay, tumor incidence TD50
Protocol description: carcinogenic potency in animals, long-term in vivo studies, CPDB compilation (AID 1745844)
Experimental context: mouse; strain Swiss; males; in drinking water; site: lung; lesion: adenoma; dosed 69 weeks; study length 69 weeks

| Molecule smiles | Test target | TD50 |
| --- | --- | --- |
| CNN | rodent lifetime carcinogenesis bioassay, tumor incidence TD50 | 10.1 mg/kg/day |

* * *

Test system: rodent lifetime carcinogenesis bioassay, tumor incidence TD50
Protocol description: carcinogenic potency in animals, long-term in vivo studies, CPDB compilation (AID 1745844)
Experimental context: rat; strain F344/DuCrj; males; in feed; site: liver; lesion: neoplastic nodule; dosed 104 weeks; study length 105 weeks
Calls of active or inactive are those of the source. How the calls were made is not given here.

| Molecule smiles | Test target | TD50 |
| --- | --- | --- |
| COc1cc(/C=C/C(=O)O[C@H]2CC[C@]34C[C@]35CC[C@]3(C)[C@@H]([C@H](C)CCC=C(C)C)CC[C@@]3(C)[C@@H]5CC[C@H]4C2(C)C)ccc1O | rodent lifetime carcinogenesis bioassay, tumor incidence TD50 | 68500 mg/kg/day (inactive) |
